# assay.protocol: amyloid nucleation score (Sup35N fusion, yeast selection) (log enrichment); library NNK3; higher = more nucleation; inactive = no reads after selection;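 also: zero at mode of non-aggregating sequences after 7 days selection at 30°C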
observation.type: amyloid nucleation score

{"substance": "FVILFVVFNYINALCDCNID", "observation.type": "amyloid nucleation score", "test.value": 0.377}
{"substance": "LQVARIMVSWIDQCGENRTD", "observation.type": "amyloid nucleation score", "test.value": "inactive"}
{"substance": "MSHCYYEFARVPKWHERCPS", "observation.type": "amyloid nucleation score", "test.value": "inactive"}
{"substance": "AELSIADPTEMSGRVFACNV", "observation.type": "amyloid nucleation score", "test.value": "inactive"}

Identify amyloid nucleation score associated with the substance DGLIECWDFNRIMGLNKQNK
-1.33

Identify amyloid nucleation score associated with the substance GRLALSTRQHLV
inactive

Identify amyloid nucleation score associated with the substance TITLFSSWGSV
0.612

Identify amyloid nucleation score associated with the substance LELGTLTNRSLCFCEILPFC
inactive

Identify amyloid nucleation score associated with the substance GRLNVLRRRPVGRTKRCSKV
inactive

Identify amyloid nucleation score associated with the substance IVTNDVCVFSVQYSRFVVRL
0.416

Identify amyloid nucleation score associated with the substance MIGNITMGLMSLDSGKRSVN
inactive

Identify amyloid nucleation score associated with the substance LTVLSCTAQVDHGIAYCLEV
inactive

Identify amyloid nucleation score associated with the substance SAYTTLRDRRCSKGYNMILG
inactive
